Reported peptide exchange yield values follow for various binders
# study.system: HLA-A*24 (human)
# experiment.notes: UV peptide exchange ELISA

Req: Query (binder): `SYNGYVFYL` ; field requested: peptide exchange yield
Resp: > 75%

Req: Now consider `LLIKLLQTF` .
Resp: 50 to 75%

Req: Now consider `IQMDEPMAF` .
Resp: 10 to 20%

Req: Now consider `NYIVPDKQIF` .
Resp: 50 to 75%

Req: Now consider `AFPVTSIFHTF` .
Resp: > 75%

Req: Now consider `DYIGSVEKW` .
Resp: > 75%

Req: Now consider `KYITNLEDL` .
Resp: > 75%

Req: Now consider `ILKEDPFLF` .
Resp: 10 to 20%

Req: Now consider `PFLPPAACFF` .
Resp: > 75%
